Biological target: T1, Human PD-1 (ACROBiosystems, Inc., Catalog No. PD1-H5221) (human, UniProt Q15116 25-167)
T1 construct: Bought recombinant protein; also called huPD1-His; PD-1-his; not shown: His tag of the bought protein (huPD1-His)
T1 sequence (Q15116 25-167 limits assumed): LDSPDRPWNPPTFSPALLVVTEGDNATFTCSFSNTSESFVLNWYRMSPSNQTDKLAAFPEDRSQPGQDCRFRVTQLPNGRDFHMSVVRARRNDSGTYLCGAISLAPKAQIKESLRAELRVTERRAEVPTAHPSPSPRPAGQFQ
Assay: SPR (Biacore), scFv captured on anti-FLAG, PD-1 as analyte
quantity_measured: koff (s⁻¹)

# binder, quantity_measured, measurement_units, observed
rows = [
    ("m4B10 scFv (scFv, Mouse single-chain antibody, whole chain with FlagHis tag) scFv: MEVKLVESGGGLVKPGGSLKLSCAASGFTFSTYGMSWVRQTPEKRLQWVATISGGGSNTYYSDSVKGRFTISRDNAKNNLYLQMSSLRSEDTALYYCARQRDSAWFASWGQGTLVTVSAGGGGSGGGGSGGGGSDIVLTQSPASLAVSLGQRATISCRASENVDDYGVSFMNWFQQKPGQPPKLLIYPASNQGSGVPARFSGSGSGTDFSLNIHPMEEDDTAMYFCQQSKEVPWTFGGGTKLEIKGSGDYKDDDDKGSGHHHHHH", "koff", "s⁻¹", 0.000417),
    ("h1E9-1 (VH3-21-Vκ1-9) scFv (scFv, Whole scFv chain with FlagHis tag) scFv: MEVQLVESGGGLVKPGGSLRLSCAASGFTFSTFGMSWVRQAPGKGLEWVSTISGGGSDTYYPDSVQGRFTISRDNAKNSLYLQMNSLRAEDTAVYYCARQGYDVYSWFAYWGQGTLVTVSSGGGGSGGGGSGGGGSDIQLTQSPSFLSASVGDRVTITCRASESVDNSGISFMSWYQQKPGKAPKLLIYTASNQGSGVPSRFSGSGSGTEFTLTISSLQPEDFATYYCQQSKEVPWTFGQGTKVEIKGSGDYKDDDDKGSGHHHHHH", "koff", "s⁻¹", 0.000468),
    ("h4B10-2 (VH3-15-Vκ3-20) scFv (scFv, Whole scFv chain with FlagHis tag) scFv: MEVQLVESGGGLVKPGGSLRLSCAASGFTFSTYGMSWVRQAPGKGLEWVATISGGGSNTYYSDSVKGRFTISRDDSKNTLYLQMNSLKTEDTAVYYCARQRDSAWFASWGQGTLVTVSSGGGGSGGGGSGGGGSEIVLTQSPGTLSLSPGERATLSCRASENVDDYGVSFMNWYQQKPGQAPRLLIYPASNQGSGIPDRFSGSGSGTDFTLTISRLEPEDFAVYYCQQSKEVPWTFGQGTKVEIKGSGDYKDDDDKGSGHHHHHH", "koff", "s⁻¹", 0.00324),
]
